Some molecules, each annotated with its measured pIC50.
SUBJECT OF TEST: α-glucosidase (Saccharomyces cerevisiae, EC 3.2.1.20) (Saccharomyces cerevisiae, UniProt P53341)
Sequence (P53341 whole entry): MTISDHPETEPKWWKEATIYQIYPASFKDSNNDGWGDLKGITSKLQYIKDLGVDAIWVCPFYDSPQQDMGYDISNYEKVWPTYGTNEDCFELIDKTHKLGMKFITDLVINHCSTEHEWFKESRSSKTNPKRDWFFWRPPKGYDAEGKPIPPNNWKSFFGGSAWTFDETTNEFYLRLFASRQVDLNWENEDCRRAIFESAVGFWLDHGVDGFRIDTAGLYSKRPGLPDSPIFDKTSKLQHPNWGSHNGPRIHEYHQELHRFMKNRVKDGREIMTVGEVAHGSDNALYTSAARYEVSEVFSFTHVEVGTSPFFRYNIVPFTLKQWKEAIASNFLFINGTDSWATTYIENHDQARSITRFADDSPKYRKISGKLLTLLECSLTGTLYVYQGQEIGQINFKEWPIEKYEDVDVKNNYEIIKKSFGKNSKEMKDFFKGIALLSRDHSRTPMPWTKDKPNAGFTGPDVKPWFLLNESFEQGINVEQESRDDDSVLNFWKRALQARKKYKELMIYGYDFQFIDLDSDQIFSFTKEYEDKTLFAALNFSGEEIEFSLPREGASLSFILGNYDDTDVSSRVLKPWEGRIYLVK
pIC50: −log10 of the molar value.

# SAMPLE SMILES, LIMIT QUALIFIER, pIC50
data = [
    ("O=c1cc(-c2ccccc2)oc2cc(OCCCCCCCCN3C[C@H](O)[C@@H](O)[C@H](O)[C@H]3CO)cc(O)c12", "=", 5.25),
    ("O=c1cc(-c2ccccc2)oc2cc(OCCCCCCCCCCCN3C[C@H](O)[C@@H](O)[C@H](O)[C@H]3CO)cc(O)c12", "=", 6.29),
    ("O=c1cc(-c2ccccc2)oc2cc(OCCCCCN3C[C@H](O)[C@@H](O)[C@H](O)[C@H]3CO)cc(O)c12", "<", 4.00),
]
